Test: Phase 1 four-period crossover study of relative bioavailability and food effect, Compound 1 Capsules vs Oral Solution, plasma PK
Type: in vivo, human
Conditions: human, plasma, po, 30 mg, single 30-mg oral dose, Capsules, fasted, healthy subjects, plasma; read-out: Cmax, median
Measured Parameter: Cmax (ng/mL)
Just the number in ng/mL, nothing appended.

Quick one: Cmax for `C[C@@]1(O)CC[C@H]2[C@H](CC[C@@H]3[C@@H]2CC[C@]2(C)[C@@H](C(=O)Cn4cc(C#N)cn4)CC[C@@H]32)C1` ?
20.4

###

Assay: Phase 1 four-period crossover study of relative bioavailability and food effect, Compound 1 Capsules vs Oral Solution, plasma PK
Assay type: in vivo, human
Conditions: human, plasma, po, 30 mg, single 30-mg oral dose, Oral Solution, fasted, healthy subjects, plasma; read-out: t1/2, arithmetic mean (converted)
Measured Parameter: half-life
Be sure to follow the number with its unit.

Quick one: half-life for `C[C@@]1(O)CC[C@H]2[C@H](CC[C@@H]3[C@@H]2CC[C@]2(C)[C@@H](C(=O)Cn4cc(C#N)cn4)CC[C@@H]32)C1` ?
13.5 h
